Quick reference: TGI of the listed items.
- System: MOLT-4 leukemia
- test description: NCI tumour cell line growth inhibition, 48 h

Below, 10 compounds whose answers are already recorded.
{"compound": "CC(C)CNCC(O)COc1ccc(C(C)(C)c2ccc(OCC(O)CNCC(C)C)cc2)cc1 (stereo unspecified)", "obs value": "5.16 µM"}
{"compound": "O=[N+]([O-])c1c(Br)cc(Br)c2c1Nc1c(ccc(Cl)c1Cl)S2", "obs value": "7.6 µM"}
{"compound": "CCn1c(C(=O)N(C2CC2)C2CC2)cc2c3c(ncn3C)c(Nc3cc(C)n(C)n3)nc21", "obs value": "> 100 µM"}
{"compound": "CN1CCN(c2c(Cl)cc(Cl)c3[nH]c4ccccc4c(=O)c23)CC1", "obs value": "9.96 µM"}
{"compound": "COC1OC(Cc2nnc(C)o2)C(OCc2ccccc2)C(OCc2ccccc2)C1OCc1ccccc1 (stereo unspecified)", "obs value": "33 µM"}
{"compound": "O=[N+]([O-])c1ccc2nc(-c3ccccn3)c(-c3ccccn3)nc2c1", "obs value": "> 100 µM"}
{"compound": "COc1ccc2c(c1)C(N)=C(c1ccccc1)C2=O", "obs value": "> 100 µM"}
{"compound": "CO/C(=N\\N=C\\c1cccc(Cl)c1)c1ccncc1", "obs value": "> 10 µM"}
{"compound": "C(=C\\c1cccc(/C=C/c2ccccn2)n1)/c1ccccn1", "obs value": "> 100 µM"}
{"compound": "COc1ccc(-c2nc3sc(-c4ccc(Cl)cc4)cn3n2)cc1", "obs value": "> 50 µM"}

input: Look up TGI with MOLT-4 leukemia for this compound: `NC1CCCCC1.[O]=[Ge].[O]=[Ge].[O]=[Ge][OH].[O]=[Ge][OH]`
output: > 100 µM

input: Look up TGI with MOLT-4 leukemia for this compound: `CCCc1c(CC)c(=N)c2ccccc2n1C`
output: > 100 µM

input: Look up TGI with MOLT-4 leukemia for this compound: Cc1nc2c3c(ncn2n1)Oc1c(c(-c2ccccc2)nn1-c1ccccc1)C3c1ccc(Cl)cc1 (stereo unspecified)
output: > 100 µM

input: Look up TGI with MOLT-4 leukemia for this compound: `Cc1ccc(S(=O)(=O)NNC(=O)c2cc(C)ccc2NC(=O)C23CC4CC(CC(C4)C2)C3)cc1`
output: > 100 µM

input: Look up TGI with MOLT-4 leukemia for this compound: `CCOC(=O)c1c(CN2CCNCC2)nc2ccccc2c1-c1ccccc1`
output: 25 µM

----------
- System: A549 NSCLC
- test description: NCI tumour cell line growth inhibition, 48 h
Quick reference: TGI of the listed items.

Below, 5 compounds whose answers are already recorded.
{"compound": "CCOC(=O)c1c(CN2CCNCC2)nc2ccccc2c1-c1ccccc1", "target of assay": "A549 NSCLC", "obs value": "33.1 µM"}
{"compound": "NC(=S)N/N=C\\c1ccc(OCc2cccc(COc3ccc(/C=N/NC(N)=S)cc3)n2)cc1", "target of assay": "A549 NSCLC", "obs value": "> 100 µM"}
{"compound": "N#CC(C#N)=C1C(C#N)=C(N)NC12OCCO2", "target of assay": "A549 NSCLC", "obs value": "> 100 µM"}
{"compound": "COc1ccc(/C=c2\\[nH]c3nc(=O)c(N4CCOCC4)c(N)n3c2=O)cc1", "target of assay": "A549 NSCLC", "obs value": "> 100 µM"}
{"compound": "O=C(/C=C/c1ccccc1)CC1OC(=O)c2ccccc21 (stereo not given)", "target of assay": "A549 NSCLC", "obs value": "> 100 µM"}

input: Look up TGI with A549 NSCLC for this compound: `O=C(O)[C@@H]1[C@H](C(=O)O)[C@H](C(=O)O)C[C@@H]1C(=O)O`
output: > 100 µM

input: Look up TGI with A549 NSCLC for this compound: `C[C@@H](O)C(=O)N1[C@@H]2CC3CC[C@]2(CS1(=O)=O)C3(C)C`
output: > 100 µM

input: Look up TGI with A549 NSCLC for this compound: `CCn1c(C(=O)N(C2CC2)C2CC2)cc2c3c(ncn3C)c(Nc3cc(C)n(C)n3)nc21`
output: > 100 µM

input: Look up TGI with A549 NSCLC for this compound: `O=C(Nc1ccc(F)cc1)c1ccc(NC2=C(Cl)C(=O)N(Cc3ccccc3)C2=O)cc1`
output: 39 µM

input: Look up TGI with A549 NSCLC for this compound: COc1ccc(C2SCC(=O)N2NC(=O)C(O)c2ccccc2)cc1OC (stereo not given)
output: > 100 µM

----------
- Tested on: SF-295 CNS
- test description: NCI tumour cell line growth inhibition, 48 h
metric name: TGI (µM)
Number only, in µM; omit the unit.

{"molecule": "O=[N+]([O-])c1ccc(S(=O)Cc2ccccc2)c([N+](=O)[O-])c1 (stereo not given)", "TGI / µM": 26.9}
{"molecule": "CC(C)=CCC[C@@H](C)C1=C(Nc2ccccc2Cl)C(O)=C(C)C(=O)C1=O", "TGI / µM": 14}
{"molecule": "COc1ccccc1/C=C/[N+](=O)[O-]", "TGI / µM": 20.5}

Consider now this further molecule.
input: What TGI value was documented for this molecule, `Cc1cc(/C=C\c2ccc3ccccc3[n+]2C)c(O)c2ncccc12` ?
output: 1.44

----------
- System: BT-549 breast
- test description: NCI tumour cell line growth inhibition, 48 h
metric name: TGI

Below, 3 compounds whose answers are already recorded.
{"compound": "Cc1cc(C)c(P2C(=C(O[Si](C(C)C)(C(C)C)C(C)C)C(C)(C)C)C2(c2ccccc2)c2ccccc2)c(C)c1 (stereo not drawn)", "metric name": "TGI", "obs value": "> 100 µM"}
{"compound": "FC(F)(F)c1cc(-c2nnc3n2N=C(N2CCCC2)CS3)cc(C(F)(F)F)c1", "metric name": "TGI", "obs value": "> 50 µM"}
{"compound": "O=C(NCc1cccc(C(F)(F)F)c1)c1cc2sccc2nc1C(F)(F)F", "metric name": "TGI", "obs value": "> 100 µM"}

input: What TGI value was documented for this compound, `O=[N+]([O-])c1ccc2nc(-c3ccccn3)c(-c3ccccn3)nc2c1` ?
output: > 100 µM

input: What TGI value was documented for this compound, `Cc1ccc(C(=O)N/N=C(\N=Nc2cccc(Cl)c2)c2ccc(N(CCC#N)CCC#N)cc2C)cc1` ?
output: > 100 µM

input: What TGI value was documented for this compound, C=C(CCC(C)C1CCC2C3=C(C(=O)CC21C)C1(C)CCC(=O)[C@@H](C)C1CC3=O)C(C)C(=O)O (stereo partly drawn) ?
output: > 100 µM

input: What TGI value was documented for this compound, `CCOC(=O)c1c(N2CCCC2)ncn(-c2ccccc2)c1=S` ?
output: > 100 µM

input: What TGI value was documented for this compound, `COc1cc2c(c(OC)c1OC)-c1ccc(N)c(=O)cc1[C@@H](NC(C)=O)CC2` ?
output: 0.0744 µM

----------
Quick reference: TGI of the listed items.
- Test system: HOP-92 NSCLC
- test description: NCI tumour cell line growth inhibition, 48 h

Below, 5 compounds whose answers are already recorded.
{"compound": "O=C(O)[C@@H]1[C@H](C(=O)O)[C@H](C(=O)O)C[C@@H]1C(=O)O", "TGI": "> 100 µM"}
{"compound": "Nc1nc(-c2ccccc2N=NN2CCCC2)nc2ccccc12", "TGI": "21.3 µM"}
{"compound": "Nc1ncnc2c1ncn2C1CCC(COS(N)(=O)=O)C1 (stereo unspecified)", "TGI": "> 100 µM"}
{"compound": "COc1cc2c(c(OC)c1OC)-c1ccc(N)c(=O)cc1[C@@H](NC(C)=O)CC2", "TGI": "> 100 µM"}
{"compound": "CC1(C)C(=O)C(C)(C)C1=NN", "TGI": "> 100 µM"}

input: Look up TGI with HOP-92 NSCLC for this compound: CC(=O)O[C@@H]1C[C@@]23C[C@@]24CC[C@H](OC2OCC(O)C(O)C2O)C(C)(C)[C@@H]4CC=C3[C@]2(C)C[C@@H]3OC4(C[C@@H](C)[C@@H]3[C@@]12C)OC(O)[C@@]1(C)O[C@@H]41 (stereo partly specified)
output: > 100 µM

----------
- System: MDA-MB-231 breast
- test description: NCI tumour cell line growth inhibition, 48 h
Quick reference: GI50 of the listed items.

Below, 5 compounds whose answers are already recorded.
{"compound": "O=C(Nc1ccc(F)cc1)c1ccc(NC2=C(Cl)C(=O)N(Cc3ccccc3)C2=O)cc1", "target of assay": "MDA-MB-231 breast", "GI50": "17.2 µM"}
{"compound": "O=C(/C=C/C12c3ccccc3C(c3ccccc31)C1C(=O)N(c3ccccc3)C(=O)C12)c1ccccc1 (configuration not stated)", "target of assay": "MDA-MB-231 breast", "GI50": "2.23 µM"}
{"compound": "COc1ccc2c(c1)/C(=C\\c1cccnc1)C(=O)N2", "target of assay": "MDA-MB-231 breast", "GI50": "16.3 µM"}
{"compound": "CCCCCCCNc1nc(C(=O)OCC)ncc1-c1ccc(C(F)(F)F)cc1", "target of assay": "MDA-MB-231 breast", "GI50": "33.3 µM"}
{"compound": "C/C(=N\\O)c1cccc(Nc2cc(-n3ccnn3)c3ccccc3n2)c1", "target of assay": "MDA-MB-231 breast", "GI50": "10.2 µM"}

input: What GI50 value was documented for this compound, `Cc1cc(/C=C\c2ccc3ccccc3[n+]2C)c(O)c2ncccc12` ?
output: 0.259 µM

input: What GI50 value was documented for this compound, `COc1ccc(N2Cc3cnc(Nc4ccccc4)nc3N([C@@H]3CC[C@@H](O)C3)C2=O)cc1` ?
output: 5.18 µM

input: What GI50 value was documented for this compound, `CCc1n(Cc2ccc3ccccc3n2)cc[n+]1Cc1ccc2ccccc2n1` ?
output: 0.441 µM

input: What GI50 value was documented for this compound, `COc1ccc(Nc2ncc(Br)c(NCCCNC(=O)C3CCC3)n2)cc1` ?
output: 5.06 µM

Hello, the source for this data is PubChem BioAssay (NCI), in case you need it.
